- assayName: ATG_Ets_CIS: Attagene CIS-FACTORIAL HepG2 Assay for human Erythroblast Transformation Specific (ETS) (AID 2282941)
- conditionSet: HepG2 ETS cis-reporter transcription, actives raise or lower the signal
The source made the active and inactive calls. How the source made its calls: active means hit-call score of the fitted dose curve at least 0.9, where 1 is the maximum; inactive means score below 0.9.
Possible outcomes: Yes = active, No = inactive

C#CCC1=C(C)C(OC(=O)C2C(C=C(C)C)C2(C)C)CC1=O (stereo not drawn) ... No
COc1ccc(C(=CC(=O)N2CCOCC2)c2ccc(Cl)cc2)cc1OC ... Yes
CNc1cnn(-c2cccc(C(F)(F)F)c2)c(=O)c1Cl ... No
CNC(=O)ON=C(SC)C(=O)N(C)C ... No
CC(C)N(C(=O)SCC(Cl)=C(Cl)Cl)C(C)C ... No
CSc1nnc(C(C)(C)C)c(=O)n1N ... No
CNC(=O)Oc1cccc2c1OC(C)(C)O2 ... Yes
S=C1NCCN1 ... No

// provenance: PubChem BioAssay (EPA / NIEHS)
